- System: UACC-62 melanoma
- measurement protocol: NCI-60 one-dose screen, 48 h
- stated conditions: 10 µM unless noted
- Description: Growth inhibition of the UACC-62 human tumor cell line is measured as a screen for anti-cancer activity. Cells are grown in 96 well plates and exposed to the test compound for 48 hours. Compounds are tested at a single concentration, which is 10^-5 M for most compounds. The reported endpoint is percent growth (GI% or GIPRCNT), where numbers from 0 - 100% represent growth inhibition, and numbers from -100% - 0 represent cell death. For example, a value of 40 represents 60% growth inhibition. […]
About 83,000 compounds went through this panel and 20% of them were active in at least one assay; those are over-represented in the sample as a whole. The source made the active and inactive calls. The calls were made as follows: active = growth percent below 10; inactive = the rest.
Tick one outcome: active, inactive

Take a look at these entries with their results.
| molecule | category |
| --- | --- |
| O=C(COc1ccc(/C=C2\Oc3ccccc3C2=O)cc1)Nc1nc2c(s1)CCCC2 | inactive |
| N#C/C(=C\c1ccc(Br)cc1)n1nnc2cc(F)c(F)cc21 | inactive |
| CC(C)Sc1nc(NNC(N)=S)c(C#N)c(-c2ccc(F)cc2)n1 | inactive |
| CN(C)CC1C(=O)O[C@H]2[C@H]1CC/C(COC(=O)c1cc3ccccc3[nH]1)=C\CC[C@@]1(C)O[C@@H]21 (stereo not given in full) | active |
| COc1ccc2c(c1)O/C(=C/c1ccc(OCC(=O)c3ccccc3)cc1)C2=O | inactive |
| COc1cc(-c2n/c(=C\c3c(O)[nH]c4ccc(Cl)cc34)cc3c2=Nc2ccccc2-3)cc(OC)c1OC | active |
| COc1ccc(-c2nc(SCCC(C)C)nc(N/N=C\c3cccc([N+](=O)[O-])c3)c2C#N)cc1 | inactive |
| N#Cc1nc(C#N)c(Sc2ccccc2)c(Sc2ccccc2)c1Sc1ccccc1 | active |
| CC(C)(C)c1ccc(/C=C/C(=O)Nc2ccc(O)cc2)cc1 | inactive |
| CC(CCc1ccc(Cl)c(Cl)c1)NCc1ccc(C(C)(C)C)cc1 (stereo not given) | inactive |

Assay outcome for Cc1c(O)cc(-c2cnc(N/N=C\c3ccc(Cl)cc3)s2)c(O)c1C : what was it? inactive

Look up the recorded call for COc1cccc(-c2nn(-c3ccccc3)cc2-c2ccnc(NCCCNC(=O)c3ccccc3)c2)c1 in this test. inactive
